System: CYP74C3
Conditions: pH 6.5
endpoint: Spin state of the haem iron after ligand or detergent binding

{"molecule": "N#C[S-].[K+] [KCNS, potassium thiocyanate]", "result": "Mixture"}
{"molecule": "c1ccncc1", "result": "Low"}
{"molecule": "[N-]=[N+]=[N-] [Azide, azide]", "result": "Mixture"}
{"molecule": "[C-]#[O+] [CO, Carbon monoxide]", "result": "Low"}

---

Quick list: Km per entry.
Test system: Medicago truncatula hydroperoxide lyase CYP74C3 (HPLF), recombinant, wild type, N-terminal histidine-tagged
Details: +Detergent (purified in detergent-buffer), pH 6.5, 25° C.
endpoint: Km (µM)

{"compound.structure": "CCCCC[C@@H](/C=C/C=C\\CCCCCCCC(=O)O)OO", "result.unit": "µM", "quantitative.readout": 10.3}
{"compound.structure": "CC/C=C\\C[C@@H](/C=C/C=C\\CCCCCCCC(=O)O)OO", "result.unit": "µM", "quantitative.readout": 3.3}
{"compound.structure": "CCCCC/C=C\\C=C\\[C@H](CCCCCCCC(=O)O)OO", "result.unit": "µM", "quantitative.readout": 15.3}
{"compound.structure": "CC/C=C\\C/C=C\\C=C\\[C@H](CCCCCCCC(=O)O)OO", "result.unit": "µM", "quantitative.readout": 39.1}
